- Test system: Human immunodeficiency virus 1
- Run Description: Reactivation of latent HIV1 infected in human U1 cells assessed as increase in p24 production after 48 hrs by ELISA relative to vorinostat
- Assay type: functional
Hi there, I'd appreciate the recorded fold change (FC) for every entry that follows.
One number for each entry.

Compound | Endpoint | Reported Result
C/C=C(/C)C(=O)O[C@H]1C(C)=C[C@]23C(=O)[C@@H](C=C(CO)[C@@H](O)[C@]12O)[C@H]1[C@@H](C[C@H]3C)C1(C)C [INGENOL MEBUTATE] | fold change (FC) | 9.7

Consider the additional compound presented here.
Output fold change (FC) of C=C(C)[C@@]12C[C@@H](COC(=O)c3ccccc3)[C@@]34OC5(O[C@@H]1[C@@H]3[C@@H]1O[C@]1(CO)[C@@H](O)[C@@]1(O)[C@H]4[C@H]([C@H](C)[C@@H]1OC(=O)c1ccccc1)[C@H](C)CCCCCC[C@H]5O)O2
12.3

---

- Tested on: Human immunodeficiency virus 1
- Run Description: Reactivation of latent HIV1 infected in human U1 cells assessed as increase in p24 production after 48 hrs by ELISA relative to vorinostat
- Format: functional
Endpoint: fold change (FC)
Answers are plain numbers.

Guide cases for fold change (FC), answers given:
Smiles Str | fold change (FC)
CC(=O)Nc1ccc(C(=O)Nc2cc(-c3cccs3)ccc2N)cc1 | 1.4
Nc1ccccc1NC(=O)c1ccc(-c2cn(CCc3ccsc3)nn2)cc1 | 0.12
Nc1cc(F)ccc1NC(=O)/C=C/c1cnn(C/C=C/c2ccccc2)c1 | 0
Nc1ccc(F)cc1NC(=O)c1ccc(CNC(=O)/C=C/c2cccnc2)cc1 | 1.5

Let's switch to this compound now.
Give fold change (FC) only, for CC(=O)Nc1ccc(C(=O)Nc2nc(-c3cccs3)ccc2N)cc1 , using Human immunodeficiency virus 1 data.
1.3

---

- Run Description: Cytotoxicity against human U937 cells assessed as reduction in cell viability after 48 hrs by CellTiter-Glo luminescent cell viability assay
- Type: cell-based, U-937
Could you mark each record t if its CC50 at 48 h falls strictly under 5 µM, and f if it equals or exceeds it?

Compound | Group Label
CC(=O)Nc1ccc(C(=O)Nc2cc(-c3cccs3)ccc2N)cc1 | f

Consider C/C=C1\NC(=O)[C@H]2CSSCC/C=C/[C@H](CC(=O)N[C@H](C(C)C)C(=O)N2)OC(=O)[C@H](C(C)C)NC1=O [ROMIDEPSIN] . Does its CC50 at 48 h lie strictly below 5 µM?
t

A record lists O=C(CCCCCCC(=O)Nc1ccccc1)NO [VORINOSTAT] . Is its CC50 at 48 h below 5 µM?
t

Dear reviewer, please state whether Nc1ccccc1NC(=O)c1ccc(-c2cn(CCc3ccsc3)nn2)cc1 has CC50 at 48 h strictly beneath 5 µM.
t

Is the reported CC50 at 48 h for CC(=O)Nc1ccc(C(=O)Nc2nc(-c3cccs3)ccc2N)cc1 strictly below 5 µM?
f

---

- Run Description: Selectivity index, ratio of CC50 for human U937 cells to EC50 for reactivation of latent HIV1 infected in human U1 cells
- Test Conditions: U937 cells (CC50) and latent HIV-1 infected U1 cells (EC50)
Endpoint: selectivity ratio
Numbers only.

Previously resolved entries follow.
Molecule | selectivity ratio
CC(=O)Nc1ccc(C(=O)Nc2nc(-c3cccs3)ccc2N)cc1 | 8.2
C/C=C1\NC(=O)[C@H]2CSSCC/C=C/[C@H](CC(=O)N[C@H](C(C)C)C(=O)N2)OC(=O)[C@H](C(C)C)NC1=O [ROMIDEPSIN] | 0.66

Pending molecule:
Provide one value: measured selectivity ratio of Nc1ccc(F)cc1NC(=O)c1ccc(CNC(=O)/C=C/c2cccnc2)cc1
3.6

---

- Run Description: Cytotoxicity against human U937 cells assessed as reduction in cell viability after 48 hrs by CellTiter-Glo luminescent cell viability assay
- Assay type: cell-based, U-937
Endpoint: CC50 at 48 h

Compound | CC50 at 48 h
C/C=C(/C)C(=O)O[C@H]1C(C)=C[C@]23C(=O)[C@@H](C=C(CO)[C@@H](O)[C@]12O)[C@H]1[C@@H](C[C@H]3C)C1(C)C [INGENOL MEBUTATE] | > 0.2 µM
Nc1ccc(F)cc1NC(=O)c1ccc(CNC(=O)/C=C/c2cccnc2)cc1 | 5 µM

Now examine the next entry.
Provide CC50 at 48 h value for the following compound: C=C(C)[C@@]12C[C@@H](COC(=O)c3ccccc3)[C@@]34OC5(O[C@@H]1[C@@H]3[C@@H]1O[C@]1(CO)[C@@H](O)[C@@]1(O)[C@H]4[C@H]([C@H](C)[C@@H]1OC(=O)c1ccccc1)[C@H](C)CCCCCC[C@H]5O)O2 [GNIDIMACRIN]
4.2 to 4.8 µM
